Give measured shrunken log2 fold change for each item. Keep answers brief.
# Tested on: Escherichia coli TOP10
# Assay name: shrunken log2 fold change of peptide-encoding DNA abundance (4.5 h post-induction vs induction); higher = less antimicrobial activity (less host growth inhibition)
# Experimental setup: time post-induction: 4.5 h; library: site-saturation at positions 5, 18, 19, 20
Answers are plain numbers.

Some entries whose results are on file:
1) RRIRWRPPRLPRPRPRPHDRPRP: 0.00489
2) RRIRGRPPRLPRPRPRPHICPRP: -0.0626
3) RRIRARPPRLPRPRPRPKWNPRP: 0.286
4) RRIRKRPPRLPRPRPRPGIIPRP: -0.000605
5) RRIRDRPPRLPRPRPRPCTGPRP: -0.0116

Below are 3 sequences. Give each one its shrunken log2 fold change.
1. RRIRDRPPRLPRPRPRPACFPRP
2. RRIRDRPPRLPRPRPRPMSPPRP
3. RRIRKRPPRLPRPRPRPQWVPRP

Ans.
1: 0.664; 2: 0.0807; 3: 0.0548

----------
Answer each item with its documented shrunken log2 fold change.
# Tested on: Escherichia coli TOP10
# Assay name: shrunken log2 fold change of peptide-encoding DNA abundance (4.5 h post-induction vs induction); higher = less antimicrobial activity (less host growth inhibition)
# Experimental setup: time post-induction: 4.5 h; library: site-saturation at positions 5, 18, 19, 20
Give bare numbers.

1) RRIRVRPPRLPRPRPRPCSPPRP: -0.137
2) RRIRRRPPRLPRPRPRPPCTPRP: 1.59
3) RRIRDRPPRLPRPRPRPQTDPRP: -0.0328
4) RRIRYRPPRLPRPRPRPTEKPRP: -0.0336
5) RRIRLRPPRLPRPRPRPKFYPRP: -0.369
6) RRIRCRPPRLPRPRPRPHQYPRP: -0.05
7) RRIRSRPPRLPRPRPRPPVWPRP: 0.48
8) RRIRGRPPRLPRPRPRPRAMPRP: 0.787

Lab note: each sequence below needs its shrunken log2 fold change filled in.
1. RRIRNRPPRLPRPRPRPCWIPRP
2. RRIRTRPPRLPRPRPRPAYAPRP
3. RRIRWRPPRLPRPRPRPTCVPRP
4. RRIRPRPPRLPRPRPRPAAGPRP
5. RRIRIRPPRLPRPRPRPVHMPRP
6. RRIRRRPPRLPRPRPRPHTRPRP

Ans.
-0.00906
0.0376
0.145
0.287
-0.315
0.145

Qu. What value of shrunken log2 fold change has been recorded for this entry: RRIRCRPPRLPRPRPRPIDIPRP
Ans. 0.0768

----------
# Tested on: Escherichia coli TOP10
# Assay name: shrunken log2 fold change of peptide-encoding DNA abundance (4.5 h post-induction vs induction); higher = less antimicrobial activity (less host growth inhibition)
# Experimental setup: time post-induction: 4.5 h; library: site-saturation at positions 5, 18, 19, 20
Observable: shrunken log2 fold change
Numbers only.

Below: 5 sequences and their reported shrunken log2 fold change.
1) RRIRKRPPRLPRPRPRPVKMPRP: 0.0491
2) RRIRYRPPRLPRPRPRPQEFPRP: -0.00973
3) RRIRDRPPRLPRPRPRPGVLPRP: -0.0992
4) RRIRWRPPRLPRPRPRPAAPPRP: 0.613
5) RRIRYRPPRLPRPRPRPTHSPRP: -0.698

Provide shrunken log2 fold change for all items below, preserving their order.
1. RRIRDRPPRLPRPRPRPAIKPRP
2. RRIRGRPPRLPRPRPRPGHVPRP
3. RRIRMRPPRLPRPRPRPMERPRP
4. RRIRARPPRLPRPRPRPWKVPRP
5. RRIRTRPPRLPRPRPRPDIMPRP

Ans.
0.235
0.204
-0.0334
-0.279
-0.624

----------
# System: Escherichia coli TOP10
# Assay name: shrunken log2 fold change of peptide-encoding DNA abundance (4.5 h post-induction vs induction); higher = less antimicrobial activity (less host growth inhibition)
# Experimental setup: time post-induction: 4.5 h; library: site-saturation at positions 5, 18, 19, 20
Exercise: for every item that follows, state its recorded shrunken log2 fold change.

Sample answers from the record:
1. RRIRCRPPRLPRPRPRPKIDPRP: -0.0573
2. RRIRPRPPRLPRPRPRPNPFPRP: -0.382
3. RRIRKRPPRLPRPRPRPYIDPRP: -0.194

I'm hoping you can list shrunken log2 fold change for every sequence here, please.
1. RRIRKRPPRLPRPRPRPFHVPRP
2. RRIRSRPPRLPRPRPRPFKHPRP
3. RRIRKRPPRLPRPRPRPYLSPRP
4. RRIRTRPPRLPRPRPRPALQPRP
5. RRIRCRPPRLPRPRPRPEICPRP
6. RRIRGRPPRLPRPRPRPLDGPRP

Ans.
1. -0.265
2. -0.195
3. -0.119
4. 0.278
5. 0.0631
6. 0.342

----------
# System: Escherichia coli TOP10
# Assay name: shrunken log2 fold change of peptide-encoding DNA abundance (4.5 h post-induction vs induction); higher = less antimicrobial activity (less host growth inhibition)
# Experimental setup: time post-induction: 4.5 h; library: site-saturation at positions 5, 18, 19, 20
Observable: shrunken log2 fold change

Take a look at these entries with their results.
1. RRIRYRPPRLPRPRPRPQEVPRP: 0.013
2. RRIRGRPPRLPRPRPRPYFVPRP: 0.0122
3. RRIRLRPPRLPRPRPRPFFNPRP: -0.359
4. RRIRGRPPRLPRPRPRPGLAPRP: 1.25
5. RRIRIRPPRLPRPRPRPHIQPRP: -0.791
6. RRIRKRPPRLPRPRPRPKFEPRP: -0.0585

Field: shrunken log2 fold change. Fill in for each record below.
1. RRIRGRPPRLPRPRPRPSMKPRP
2. RRIRGRPPRLPRPRPRPTMFPRP
3. RRIRLRPPRLPRPRPRPFPRPRP
4. RRIRPRPPRLPRPRPRPYSYPRP
5. RRIRPRPPRLPRPRPRPCEHPRP
6. RRIRDRPPRLPRPRPRPAPDPRP
7. RRIRARPPRLPRPRPRPVLIPRP
8. RRIRARPPRLPRPRPRPSHHPRP

Ans.
0.354
0.521
-0.163
-0.228
0.099
0.533
-0.179
-0.309

Qu. What value of shrunken log2 fold change has been reported for the following sequence? RRIRMRPPRLPRPRPRPFRRPRP
Ans. -0.117

----------
# System: Escherichia coli TOP10
# Assay name: shrunken log2 fold change of peptide-encoding DNA abundance (4.5 h post-induction vs induction); higher = less antimicrobial activity (less host growth inhibition)
# Experimental setup: time post-induction: 4.5 h; library: site-saturation at positions 5, 18, 19, 20
Can you tell me shrunken log2 fold change for the items I'm about to list?

Below: 3 sequences and their reported shrunken log2 fold change.
1) RRIRNRPPRLPRPRPRPEPYPRP: 0.0346
2) RRIRMRPPRLPRPRPRPVIQPRP: 0.257
3) RRIRNRPPRLPRPRPRPCAKPRP: -0.0333

// for each sequence in input: emit shrunken log2 fold change
1. RRIRIRPPRLPRPRPRPEHDPRP
2. RRIRMRPPRLPRPRPRPSQPPRP

Ans.
1: -0.523; 2: 0.22

Would you mind listing shrunken log2 fold change for each of the following sequences?
1. RRIRGRPPRLPRPRPRPWDMPRP
2. RRIRKRPPRLPRPRPRPAMWPRP
3. RRIRSRPPRLPRPRPRPVWEPRP
4. RRIRHRPPRLPRPRPRPPVGPRP
5. RRIRSRPPRLPRPRPRPTKMPRP

Ans.
-0.08
0.241
0.118
0.183
0.00603

Quick one: give me shrunken log2 fold change for each item below, same order please.
1. RRIRCRPPRLPRPRPRPTPRPRP
2. RRIRVRPPRLPRPRPRPDSSPRP

Ans.
0.987
-0.0452

Count: 3. Required value per item: shrunken log2 fold change.
1. RRIRDRPPRLPRPRPRPMGSPRP
2. RRIRNRPPRLPRPRPRPVGFPRP
3. RRIRCRPPRLPRPRPRPPMRPRP

Ans.
0.00408
0.165
0.945

----------
Answer each item with its documented shrunken log2 fold change.
# Test system: Escherichia coli TOP10;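 also: peptides expressed intracellularly from a pBAD plasmid library in pooled LB shake-flask culture, induced with 0.3% L-arabinose, DNA abundance read by NGS, three biological replicates, DESeq2 with apeglm shrinkage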
# Assay name: shrunken log2 fold change of peptide-encoding DNA abundance (4.5 h post-induction vs induction); higher = less antimicrobial activity (less host growth inhibition)
# Experimental setup: time post-induction: 4.5 h; library: site-saturation at positions 5, 18, 19, 20
Give bare numbers.

Record excerpt, results attached:
1. RRIRLRPPRLPRPRPRPPECPRP: -0.29
2. RRIRYRPPRLPRPRPRPQHTPRP: -0.671
3. RRIRLRPPRLPRPRPRPPWEPRP: 0.192

Please look at the items below and tell me shrunken log2 fold change for each one, in order.
1. RRIRDRPPRLPRPRPRPVQTPRP
2. RRIRPRPPRLPRPRPRPSKNPRP

Ans.
[-0.0375, -0.333]

Kindly give each listed record's shrunken log2 fold change.
1. RRIRVRPPRLPRPRPRPTCNPRP
2. RRIRIRPPRLPRPRPRPRLNPRP
3. RRIRGRPPRLPRPRPRPHNIPRP

Ans.
1. -0.233
2. -0.247
3. -0.386

I would be grateful if you could provide shrunken log2 fold change for each of the following entries.
1. RRIRHRPPRLPRPRPRPQKSPRP
2. RRIRCRPPRLPRPRPRPQKNPRP
3. RRIRCRPPRLPRPRPRPMDVPRP
4. RRIRGRPPRLPRPRPRPTWFPRP
5. RRIRLRPPRLPRPRPRPDRRPRP
6. RRIRIRPPRLPRPRPRPAYTPRP
7. RRIRTRPPRLPRPRPRPPMRPRP
8. RRIRMRPPRLPRPRPRPPQEPRP

Ans.
1. -0.138
2. -0.281
3. -0.00136
4. 0.281
5. 0.0766
6. -1.41
7. 0.957
8. 0.161

Give shrunken log2 fold change for each listed item.
1. RRIRNRPPRLPRPRPRPNIDPRP
2. RRIRIRPPRLPRPRPRPAWAPRP
3. RRIRHRPPRLPRPRPRPQYHPRP
4. RRIRDRPPRLPRPRPRPEPIPRP
5. RRIRARPPRLPRPRPRPCGDPRP
6. RRIRARPPRLPRPRPRPQVTPRP

Ans.
-0.936
0.243
-0.972
-0.0153
-0.239
0.356

Hey, just so you know, these numbers are from the supplement of paper PMC9112550.
